A collection of compounds and their measured melting point

compound	measured
Cc1cc(-c2sc(N3CCN(Cc4cccc(C(F)(F)F)c4)C3=O)nc2C)n[nH]1 [Example 6.1]	163 to 164 °C
Cc1nc(N2CCN(CC3CC3)C2=O)sc1C(N)=O [Example 1.5]	198 to 200 °C
Cc1nc(N2CCN(CC(C)C)C2=O)sc1C(=O)NCc1ccn(C)n1 [Example 12.22]	158 to 161 °C
Cc1nc(N2CCN(CC3CC3)C2=O)sc1C(=O)NCc1ncco1 [Example 12.15]	172 to 174 °C

Enquiry: For Cc1nc(-n2cnn(CC3CC3)c2=O)sc1C(=O)NCc1cocn1 [Example 14.2] , what is its reported melting point?
Return: 157 to 158 °C

Enquiry: Check Cc1nc(N2C[C@@H](C)N(Cc3ccc(F)cc3)C2=O)sc1C(=O)NCc1cccnc1 [Example 2.7] too.
Return: 135 to 136 °C

Enquiry: What about this compound? Cc1nc(N2CCN(CC3CC3)C2=O)sc1C(=O)NCc1cncc(F)c1 [Example 12]
Return: 144 to 145 °C

====

Below, each entry is listed with its recorded melting point.

Example entries begin here.
compound	melting point
Cc1nc(-n2cnn(CC3CC3(F)F)c2=O)sc1C(N)=O (centres unmarked) [Example 16.6]	273 to 275 °C
Cc1nc(N2C(=O)N(Cc3ccc(F)cc3)C[C@H]2C)sc1C(=O)NCc1cncs1 [Example 2.19]	70 to 73 °C

Enquiry: Quick check: melting point of Cc1nc(N2CCN(CC3CC3)C2=O)sc1C(=O)NCc1ccncc1 [Example 12.13] ?
Return: > 200 °C

Enquiry: Now the compound Cc1nc(N2CCN(Cc3ccc(F)cc3)C2=O)sc1C(=O)NCc1csc(C(C)C)n1 [Example 16.4]
Return: 170 to 172 °C

Enquiry: One more compound: Cc1nc(N2CCN(Cc3ccc(OC(F)(F)F)cc3)C2=O)sc1C(N)=O [Example 1.9]
Return: 185 to 187 °C

====

property: melting point

Sample answers from the record:
smiles-input	property	measured
Cc1nc(-n2cnn(CC3CC3)c2=O)sc1C(=O)NCc1ccncc1	melting point	169 to 170 °C
Cc1nc(N2CCN(CC3CC3)C2=O)sc1-c1cc[nH]n1	melting point	169 to 171 °C
Cc1cc(CNC(=O)c2sc(N3C[C@@H](C)N(Cc4cc(F)cc(F)c4)C3=O)nc2C)no1	melting point	63 to 66 °C
Cc1nc(-n2cnn(CCC3CC3)c2=O)sc1C(=O)NCc1cccnc1	melting point	139 to 140 °C
Cc1nc(N2C[C@H](C)N(Cc3ccc(F)cc3)C2=O)sc1C(=O)NCc1ccc(F)c(F)c1	melting point	62 to 65 °C
Cc1nc(N2CCN(CC(C)C)C2=O)sc1C(=O)NCc1ccncc1	melting point	185 to 187 °C

Enquiry: Entry Cc1nc(N2CCN(Cc3ccc(C(F)(F)F)nc3)C2=O)sc1C(N)=O : reported melting point = ?
Return: 225 to 228 °C

Enquiry: Here is the next molecule: Cc1nc(N2C[C@@H](C)N(Cc3ccc(F)cc3)C2=O)sc1C(=O)NCc1ccc(F)c(F)c1
Return: 134 to 135 °C

====

Examples of compounds with documented melting point follow.

compound	melting point
Cc1nc(N2CCN(CCC3CC3)C2=O)sc1-c1cc[nH]n1 [Example 8]	147 to 149 °C

Enquiry: Name the reported melting point value associated with the compound Cc1cnc(CNC(=O)c2sc(N3C[C@@H](C)N(Cc4cc(F)cc(F)c4)C3=O)nc2C)cn1 [Example 2.13]
Return: 131 to 132 °C

Enquiry: And then Cc1nc(N2C[C@@H](C)N(Cc3cc(F)cc(F)c3)C2=O)sc1C(=O)NCc1ccccn1 [Example 2.12] , what is it?
Return: 147 to 148 °C

Enquiry: Next up: Cc1cncc(CNC(=O)c2sc(N3CCN(CCCC(F)(F)F)C3=O)nc2C)n1 [Example 12.6]
Return: 123 °C
